- assayed target: HLA-A*02 (human)
- test protocol: UV peptide-exchange ELISA, yield grade

>  <binder>
FLVDGSYSI [FLVDGSYSI (SEQ ID NO: 9)]

>  <peptide exchange yield>
50 to 75%

$$$$
>  <binder>
TVFTDHMLTV [TVFTDHMLTV (SEQ ID NO: 57)]

>  <peptide exchange yield>
20 to 49%

$$$$
>  <binder>
TQSPATLSV [TQSPATLSV (SEQ ID NO: 128)]

>  <peptide exchange yield>
20 to 49%

$$$$
>  <binder>
ALCPRIHEV [ALCPRIHEV (SEQ ID NO: 84)]

>  <peptide exchange yield>
≥ 75%

$$$$
>  <binder>
LLLPAVPVGA [LLLPAVPVGA (SEQ ID NO: 94)]

>  <peptide exchange yield>
50 to 75%

$$$$
>  <binder>
QLQDRVYAL [QLQDRVYAL (SEQ ID NO: 261)]

>  <peptide exchange yield>
50 to 75%

$$$$
>  <binder>
SVLDSTAKV [SVLDSTAKV (SEQ ID NO: 151)]

>  <peptide exchange yield>
20 to 49%

$$$$
>  <binder>
RLQDILWFL [RLQDILWFL (SEQ ID NO: 129)]

>  <peptide exchange yield>
≥ 75%

$$$$
>  <binder>
VLNDILVRA [VLNDILVRA (SEQ ID NO: 85)]

>  <peptide exchange yield>
50 to 75%

$$$$
>  <binder>
GIAGSLKTV [GIAGSLKTV (SEQ ID NO: 10)]

>  <peptide exchange yield>
50 to 75%

$$$$
>  <binder>
SLFSDEFKV [SLFSDEFKV (SEQ ID NO: 23)]

>  <peptide exchange yield>
50 to 75%

$$$$
